These measurements were taken from patent US20130079345A1.

# Test system: CDK2/CyclinA (Homo sapiens)
# Assay: LanthaScreen Eu Kinase Binding Assay, CDK2
# Protocol conditions: tracer 236, read-out: Affinity (Kd) CDK2
# Method: This protocol describes how the LanthaScreen Eu Kinase Binding Assay was performed to determine dissociation constants (Kd) of compounds of general formula (I) and CDK/Cyclin complexes. […] Binding of the tracer to the kinase is detected using a Eu-labeled antibody. […] The compounds of general formula (I) summarized in Table 1 were diluted from a 10 mM DMSO stock solution 1:10 in a total volume of 15 μL DMSO. […] Positive and negative controls were calculated from at least 8 different sample wells. […]
What Kd was measured for each of the following?
Quick reminder: number only, in nM, skip the unit.

Data request: Report measured Kd; entry is CCOc1ccccc1-c1ncnc(Nc2cccc(CS(N)(=O)=O)c2)n1 [Compound B12]
Data returned: 2350

Data request: Report measured Kd; entry is COc1ccccc1-c1ncnc(Nc2cccc(NC(=O)Nc3ccccc3)c2)n1 [Compound N1]
Data returned: 2360

Data request: Report measured Kd; entry is COc1ccccc1-c1ncnc(Nc2cccc(NS(C)(=O)=O)c2)n1 [Compound K1]
Data returned: 283

Data request: Report measured Kd; entry is COc1ccccc1-c1ncnc(Nc2ccc3c(c2)N(S(N)(=O)=O)CC3)n1 [Compound F1]
Data returned: 1100

Data request: Report measured Kd; entry is COc1ccccc1-c1ncnc(Nc2cccc(C(N)=O)c2)n1 [Compound E1]
Data returned: 2160

Data request: Report measured Kd; entry is NS(=O)(=O)Cc1cccc(Nc2ncnc(-c3ccccc3OCc3ccccc3)n2)c1 [Compound B13]
Data returned: 687

Data request: Report measured Kd; entry is COc1cc(F)ccc1-c1ncnc(Nc2cccc(CS(=O)(=O)NCCCCNC(=O)OC(C)(C)C)c2)n1 [Compound Q1]
Data returned: 2090

Data request: Report measured Kd; entry is COc1ccccc1-c1ncnc(Nc2cccc(CCS(N)(=O)=O)c2)n1 [Compound D1]
Data returned: 310

----------
What IC50 was measured for each of the following?
# Tested on: H460 cells
# Assay: Cell viability, H460 cells
# Type: cell-based, human
# Protocol conditions: Homo sapiens, NCI-H460
Where a name gives a salt, the structure may show the parent alone.
Quick reminder: number only, in nM, skip the unit.

Data request: Please indicate recorded IC50 of NS(=O)(=O)Cc1cccc(Nc2ncnc(-c3ccccc3OCc3ccccc3)n2)c1 [B13′, trifluoroacetic acid salt] measured with H460 cells.
Data returned: 320

Data request: Please indicate recorded IC50 of COc1ccccc1-c1ncnc(Nc2cccc(CS(N)(=O)=O)c2)n1 [B1′, trifluoroacetic acid salt] measured with H460 cells.
Data returned: 3500

Data request: Please indicate recorded IC50 of COc1cc(F)ccc1-c1ncnc(Nc2cccc(CS(N)(=O)=O)c2)n1 [Compound B2] measured with H460 cells.
Data returned: 1300

Data request: Please indicate recorded IC50 of COc1ccccc1-c1ncnc(Nc2cccc(S(N)(=O)=O)c2)n1 [C1′, trifluoroacetic acid salt] measured with H460 cells.
Data returned: 1100

----------
# System: MaTu/ADR cells
# Assay: Cell viability, MaTu/ADR cells
# Format: cell-based
# Protocol conditions: Homo sapiens
Counter-ions that a name gives are not always drawn.
What IC50 was measured for each of the following?
Quick reminder: number only, in nM, skip the unit.

Data request: Please indicate recorded IC50 of COc1ccccc1-c1ncnc(Nc2cccc(S(N)(=O)=O)c2)n1 [C1′, trifluoroacetic acid salt] measured with MaTu/ADR cells.
Data returned: 760

Data request: Please indicate recorded IC50 of NS(=O)(=O)Cc1cccc(Nc2ncnc(-c3ccccc3OCc3ccccc3)n2)c1 [B13′, trifluoroacetic acid salt] measured with MaTu/ADR cells.
Data returned: 290

Data request: Please indicate recorded IC50 of "COc1cc(F)ccc1-c1ncnc(Nc2cccc(CS(N)(=O)=O)c2)n1" measured with MaTu/ADR cells.
Data returned: 1000

Data request: Please indicate recorded IC50 of COc1ccccc1-c1ncnc(Nc2cccc(CS(N)(=O)=O)c2)n1 [B1′, trifluoroacetic acid salt] measured with MaTu/ADR cells.
Data returned: 3200
